# System: HCC1937
# Assay Explanation: normalised viability (% of control), CellTiter-Blue; higher = more viable cells (100 = DMSO, 0 = benzethonium chloride kill control)
# Test Context: incubation time: 72 h
Recorded normalised viability for the following molecules
Write down the numeric answer in % and omit the unit.

Some entries whose results are on file:
Cn1c(=O)c(F)c(Nc2ccc(I)cc2F)c2c(=O)n(C[C@@H](O)CO)cnc21 [TAK-733] (0.1 nM) : 88.7
O=c1[nH]c(=O)n([C@H]2C[C@H](O)[C@@H](CO)O2)cc1F [Floxuridine] (1 nM) : 89.2

Now look at this one.
Inquiry: Name the reported normalised viability value associated with the molecule COc1cc(Nc2ncc(F)c(Nc3ccc4c(n3)NC(=O)C(C)(C)O4)n2)cc(OC)c1OC [R406] (1 nM)
Reply text: 91.6
